- Test system: young adult male Swiss-Webster strain albino mice
- Assay info: Acute oral toxicity (ALD50)
- Assay type: in vivo
- Settings: 125 mg/kg oral, aqueous solution
Mortality 7 Days overview

Compound: CCCCCCNc1cc[n+](CCCCCCCCCCCCCC[n+]2ccc(NCCCCCC)cc2)cc1
Property name: Mortality 7 Days
Endpoint result: 1/3
//
Compound: CCCCCCCNc1cc[n+](CCCCCCCCCCCC[n+]2ccc(NCCCCCCC)cc2)cc1
Property name: Mortality 7 Days
Endpoint result: 0/3
//
Compound: CCCCCCCNc1cc[n+](CCCCCCCC[n+]2ccc(NCCCCCCC)cc2)cc1
Property name: Mortality 7 Days
Endpoint result: 0/3
//
Compound: CCCCCCCNc1cc[n+](CCCCCCCCCC[n+]2ccc(NCCCCCCC)cc2)cc1
Property name: Mortality 7 Days
Endpoint result: 1/3
//
Compound: CCCCCCCCNc1cc[n+](CCCCCCCC[n+]2ccc(NCCCCCCCC)cc2)cc1
Property name: Mortality 7 Days
Endpoint result: 0/3
//
Compound: CCCCC(CC)CNc1cc[n+](CCCCCCCCCC[n+]2ccc(NCC(CC)CCCC)cc2)cc1 (stereo not shown)
Property name: Mortality 7 Days
Endpoint result: 0/3

We now examine a further compound.
Reported Mortality 7 Days of CCCCCCCCNc1cc[n+](CCCCCCCCCC[n+]2ccc(NCCCCCCCC)cc2)cc1 [10A,B] : 0/3

* * *

MIC overview
- Tested on: S. Aureus ATCC 6538
- Assay info: Effect of serum on bacteriostatic activity (serial tube dilution test)
- Format: cell-based, Staphyloccocus aureus
- Settings: Staphylococcus aureus, ATCC6538; 40% heat inactivated horse serum; read-out: MIC S. Aureus ATCC 6538 40% Serum
Write the quantity with the unit trailing the number.

Answered examples (5):
Compound: Clc1ccc(Nc2cc[n+](CCCCCCCCCC[n+]3ccc(Nc4ccc(Cl)cc4)cc3)cc2)cc1 [Example 79B]
MIC: 7.8 µg/mL

Compound: CCCCCCCNc1cc[n+](CCCCCCCCCC[n+]2ccc(NCCCCCCC)cc2)cc1
MIC: 1.95 µg/mL

Compound: CCCCCCCNc1cc[n+](CCCCCCCCCCCCCC[n+]2ccc(NCCCCCCC)cc2)cc1
MIC: 3.12 µg/mL

Compound: CCCCCCNc1cc[n+](CCCCCCCCCC[n+]2ccc(NCCCCCC)cc2)cc1
MIC: 1.95 µg/mL

Compound: CCCCC(CC)CNc1cc[n+](CCCCCCCCCC[n+]2ccc(NCC(CC)CCCC)cc2)cc1 (centres unmarked)
MIC: 3.9 µg/mL

Reported MIC of `CCCCCCCCNc1cc[n+](CCCCCCCC[n+]2ccc(NCCCCCCCC)cc2)cc1` : 7.8 µg/mL

Reported MIC of `CCCCCCCNc1cc[n+](CCCCCCCCCCCC[n+]2ccc(NCCCCCCC)cc2)cc1` : 3.12 µg/mL

Reported MIC of `CCCCCCCNc1cc[n+](CCCCCCCC[n+]2ccc(NCCCCCCC)cc2)cc1` : 3.9 µg/mL

* * *

Mortality 7 Days overview
- System: young adult male Swiss-Webster strain albino mice
- Assay info: Acute oral toxicity (ALD50)
- Assay type: in vivo
- Settings: 500 mg/kg oral, suspension in 1% G.T.

Answered examples (4):
Compound: CCCCCCCNc1cc[n+](CCCCCCCCCCCC[n+]2ccc(NCCCCCCC)cc2)cc1 [Example 4]
Endpoint result: 0/3

Compound: CCCCCCCCNc1cc[n+](CCCCCC[n+]2ccc(NCCCCCCCC)cc2)cc1
Endpoint result: 0/3

Compound: CCCCCCCNc1cc[n+](CCCCCCCCCCCCCC[n+]2ccc(NCCCCCCC)cc2)cc1 [Example 2]
Endpoint result: 0/3

Compound: CCCCCCCCNc1cc[n+](CCCCCCCCC[n+]2ccc(NCCCCCCCC)cc2)cc1 [Example 44A]
Endpoint result: 0/3

Reported Mortality 7 Days of CCCCC(CC)CNc1cc[n+](CCCCCCCCCC[n+]2ccc(NCC(CC)CCCC)cc2)cc1 (centres unmarked) : 0/3

Reported Mortality 7 Days of `CCCCCCCCNc1cc[n+](CCCCCCCCCC[n+]2ccc(NCCCCCCCC)cc2)cc1` : 0/3

Reported Mortality 7 Days of `CCCCCCNc1cc[n+](CCCCCCCCCCCCCC[n+]2ccc(NCCCCCC)cc2)cc1` : 0/3

Reported Mortality 7 Days of CCCCCCCNc1cc[n+](CCCCCCCCCCCCCC[n+]2ccc(NCCCCCCC)cc2)cc1 [Example 1D] : 1/3

* * *

- Test system: E. coli AB1932-1
- Assay info: In vitro antibacterial activity, MIC (modified Autotiter method)
- Type: cell-based, Escherichia coli
- Settings: Escherichia coli, AB19321, 20 h, 18-20 hours at 37° C.; read-out: MIC E. coli AB1932-1
Property name: MIC (µg/mL)
// units = µg/mL; emit number, no label

Answered examples (3):
Compound: c1c[n+](CCCCCCCCC[n+]2ccc(NC3CCCCC3)cc2)ccc1NC1CCCCC1
Property name: MIC
Unit name: µg/mL
Endpoint result: 31.3

Compound: Clc1ccc(Nc2cc[n+](CCCCCCC[n+]3ccc(Nc4ccc(Cl)cc4)cc3)cc2)cc1
Property name: MIC
Unit name: µg/mL
Endpoint result: 125

Compound: CCCCCCCCCNc1cc[n+](CCCCCCCC[n+]2ccc(NCCCCCCCCC)cc2)cc1 [Example 29C]
Property name: MIC
Unit name: µg/mL
Endpoint result: 1.95

Reported MIC of CCCCCCCCNc1cc[n+](CCCCCCCCCC[n+]2ccc(NCCCCCCCC)cc2)cc1 [10A,B] : 1

Reported MIC of `CCCCCCCCCCNc1cc[n+](CCCCCCCC[n+]2ccc(NCCCCCCCCCC)cc2)cc1` : 7.8

Reported MIC of `CCCCCCCCCCCCNc1cc[n+](CCCCCCCC[n+]2ccc(NCCCCCCCCCCCC)cc2)cc1` : 62.5

* * *

- Tested on: E. coli 100/B22
- Assay info: In vitro antibacterial activity, MIC (modified Autotiter method)
- Format: cell-based, Escherichia coli
- Settings: Escherichia coli, 100/B22, 20 h, 18-20 hours at 37° C.; read-out: MIC E. coli 100/B22
log10 of MIC overview
The common logarithm of MIC in µg/mL is what is listed.

Compound: CCCCCCCCCCNc1cc[n+](CCCCCC[n+]2ccc(NCCCCCCCCCC)cc2)cc1 [Example 64B]
log10 of MIC: 0.89
--
Compound: CCCCCCNc1cc[n+](CCCCCCC[n+]2ccc(NCCCCCC)cc2)cc1
log10 of MIC: 0.89
--
Compound: CCCCCCCCNc1cc[n+](CCCCCCCCCCCC[n+]2ccc(NCCCCCCCC)cc2)cc1
log10 of MIC: 0.29
--
Compound: CCCCCCCCCCNc1cc[n+](CCCCCCC[n+]2ccc(NCCCCCCCCCC)cc2)cc1
log10 of MIC: 0.59
--
Compound: Nc1cc[n+](CCCCCCCC[n+]2ccc(N)cc2)cc1 [I, reference compound]
log10 of MIC: 2.40

Reported log10 of MIC of `CCCCCCNc1cc[n+](CCCCC[n+]2ccc(NCCCCCC)cc2)cc1` : 1.80

Reported log10 of MIC of `CCCCCCNc1cc[n+](CCCCCCCC[n+]2ccc(NCCCCCC)cc2)cc1` : 0.59

Reported log10 of MIC of CCCCC(CC)CNc1cc[n+](CCCCC[n+]2ccc(NCC(CC)CCCC)cc2)cc1 (centres unmarked) : 1.19

Reported log10 of MIC of `Clc1ccc(Nc2cc[n+](CCCCC[n+]3ccc(Nc4ccc(Cl)cc4)cc3)cc2)cc1` : 2.10

Reported log10 of MIC of `CCCCCCNc1cc[n+](CCCC[n+]2ccc(NCCCCCC)cc2)cc1` : 2.10

Reported log10 of MIC of `CCCCCCCCCNc1cc[n+](CCCCCCCCCCCC[n+]2ccc(NCCCCCCCCC)cc2)cc1` : 0.59

Reported log10 of MIC of `CCCCCCCNc1cc[n+](CCCCC[n+]2ccc(NCCCCCCC)cc2)cc1` : 0.89

Reported log10 of MIC of `CCCCCCCCCCCCNc1cc[n+](CCCCCC[n+]2ccc(NCCCCCCCCCCCC)cc2)cc1` : 1.80

Reported log10 of MIC of `CCCCCCCNc1cc[n+](CCCCCCCC[n+]2ccc(NCCCCCCC)cc2)cc1` : -0.01

* * *

- Tested on: Ps. aerug. MGH-2
- Assay info: In vitro antibacterial activity, MIC (modified Autotiter method)
- Format: cell-based, Pseudomonas aeruginosa
- Settings: 18-20 hours at 37° C.
Property name: MIC Ps. aerug. MGH-2 (µg/mL)
// units = µg/mL; emit number, no label

Answered examples (3):
Compound: CCCCC(CC)CNc1cc[n+](CCCCCCCCCC[n+]2ccc(NCC(CC)CCCC)cc2)cc1 (stereo not shown)
Unit name: µg/mL
Endpoint result: 31.3

Compound: CCCCCCNc1cc[n+](CCCCCCCCCCCCCC[n+]2ccc(NCCCCCC)cc2)cc1
Unit name: µg/mL
Endpoint result: 3.9

Compound: CCCCCCCCNc1cc[n+](CCCCCCCC[n+]2ccc(NCCCCCCCC)cc2)cc1
Unit name: µg/mL
Endpoint result: 7.8

We now examine a further compound.
Reported MIC Ps. aerug. MGH-2 of CCCCCCCNc1cc[n+](CCCCCCCC[n+]2ccc(NCCCCCCC)cc2)cc1 [Example 22] : 313

FYI, the data here is from patent US4206215A.
